# Target or test system: human TSLP recombinant protein (human, UniProt Q969D9 29-159, biotinylated in the blocking and cell-binding assays (sites not given))
# Protocol summary: cell-based or functional assay
Value kind: STAT5 signal inhibition IC50 (nM)
Unit nM implied. Number only.

>  <Binder>
Ab24 (antibody, V domains shown, Humanized; also called h39G5VHv5/h71G4VKv1; h39G5VHv5/h71G4VKv1 hIgG1) VH: QVQLVQSGAEVKKPGSSVKVSCKASGYTFTDYWMHWVRQAPGQGLEWMGIIDPSDSDTSLNQKFQGRVTLTVDTSTSTAYMELSSLRSEDTAVYYCARSLDGYYDYWGQGTLVTVSS VL: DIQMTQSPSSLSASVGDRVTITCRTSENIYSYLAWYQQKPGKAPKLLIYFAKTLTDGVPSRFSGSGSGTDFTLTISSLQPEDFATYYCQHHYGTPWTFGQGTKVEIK

>  <Value kind>
STAT5 signal inhibition IC50

>  <Measurement>
0.15

$$$$

Task: Which value of STAT5 signal inhibition IC50 has been reported for Ab26 (antibody, V domains shown, Humanized; also called h39G5VHv10/h71G4VKv1; h39G5VHv10/h71G4VKv1 hIgG1) VH: QVQLVQSGAEVKKPGSSVKVSCKASGYTFTDYWMHWVRQAPGQGLEWMGIIDPSDSDTSLNQKFQGRVTITADTSTSTAYMELSSLRSEDTAVYYCARSLDGYYDYWGQGTLVTVSS VL: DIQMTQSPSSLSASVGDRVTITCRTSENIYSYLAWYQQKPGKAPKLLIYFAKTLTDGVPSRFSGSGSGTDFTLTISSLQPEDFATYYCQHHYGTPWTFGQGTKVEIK in the records?
Output: 0.18
